B1: KRT71 (parent)
chain: FGSRSLYSLGGVRSLNVASGSGKS

Variants of: B1
Test Summary: protein stability index of a GFP-peptide fusion (GPS, HEK-293T) (PSI 1-6); higher = more stable;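 note: lentivirally expressed fusions sorted by FACS into six bins by GFP to DsRed ratio, PSI derived from sequencing read proportions per bin multiplied by bin number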
Study Conditions: c terminus: a fixed tail appended
Reported protein stability index by item:
Value Type: protein stability index

[
  {
    "Seq": "FGSRSLYSLGGVRSPNVASGSGKS [L15P]",
    "Experimental Value": 2.02
  },
  {
    "Seq": "FGSRSLYSHGGVRSLNVASGSGKS [L9H]",
    "Experimental Value": 2.75
  },
  {
    "Seq": "FGSRSLKSLGGVRSLNVASGSGKS [Y7K]",
    "Experimental Value": 3.02
  },
  {
    "Seq": "FGDRSLYSLGGVRSLNVASGSGKS [S3D]",
    "Experimental Value": 1.43
  },
  {
    "Seq": "FGSRSLYSLGGVRSLFVASGSGKS [N16F]",
    "Experimental Value": 2.22
  },
  {
    "Seq": "FGSHSLYSLGGVRSLNVASGSGKS [R4H]",
    "Experimental Value": 2.15
  },
  {
    "Seq": "FGSRSLYSLGGIRSLNVASGSGKS [V12I]",
    "Experimental Value": 2.12
  },
  {
    "Seq": "FGSRSLYSLGGVRSLNVASGQGKS [S21Q]",
    "Experimental Value": 2.29
  },
  {
    "Seq": "FGSDSLYSLGGVRSLNVASGSGKS [R4D]",
    "Experimental Value": 2.44
  },
  {
    "Seq": "FGSRSLYSLGGVRSVNVASGSGKS [L15V]",
    "Experimental Value": 2.07
  },
  {
    "Seq": "FGSRSLYSLGGVRSHNVASGSGKS [L15H]",
    "Experimental Value": 1.37
  }
]
